Target: Renin (Homo sapiens, UniProt P00797)
Sequence (P00797 whole entry): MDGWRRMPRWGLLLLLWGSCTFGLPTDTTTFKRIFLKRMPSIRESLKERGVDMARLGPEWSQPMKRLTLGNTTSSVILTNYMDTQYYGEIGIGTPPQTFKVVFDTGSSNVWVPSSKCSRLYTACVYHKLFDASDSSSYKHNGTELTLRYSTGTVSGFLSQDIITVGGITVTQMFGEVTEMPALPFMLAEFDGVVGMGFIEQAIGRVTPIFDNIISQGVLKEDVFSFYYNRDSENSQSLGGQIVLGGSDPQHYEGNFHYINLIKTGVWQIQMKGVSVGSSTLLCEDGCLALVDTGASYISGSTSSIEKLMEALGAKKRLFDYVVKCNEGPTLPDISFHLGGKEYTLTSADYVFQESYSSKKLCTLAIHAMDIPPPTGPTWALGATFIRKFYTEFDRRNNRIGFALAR
pIC50: −log10 of the molar value.
Kindly state pIC50 for each of the entries shown.

Prompt line: Give the measured pIC50 of CC(C)(C(=O)O)[C@@H]1CC[C@]2(C)[C@H](C(=O)C=C3[C@H]4C[C@@](C)(C(=O)O)CC[C@]4(C)CC[C@]32C)[C@@]1(C)CC(=O)O .
Response line: < 2.71

Prompt line: Same question, CC1(C)CC[C@]2(C(=O)O)CC[C@]3(C)C(=CC[C@@H]4[C@@](C)(CC(=O)O)[C@H](C(C)(C)C(=O)O)CC[C@]43C)[C@H]2C1 this time
Response line: < 2.70

Prompt line: Same question, C=C(C)[C@@H]1CC[C@]2(C)CC[C@]3(C)[C@@H](CC[C@@H]4[C@@](C)(CC(=O)O)[C@H](C(C)(C)C(=O)O)CC[C@]43C)[C@H]12 this time
Response line: < 2.67

Prompt line: Same question, C[C@H]1[C@H](C)CC[C@]2(C(=O)O)CC[C@]3(C)C(=CC[C@@H]4[C@@](C)(CC(=O)O)[C@H](C(C)(C)C(=O)O)CC[C@]43C)[C@H]12 this time
Response line: < 2.70

---

Biological target: Protease (Human immunodeficiency virus 1)
Test: Inhibition of HIV1 protease
Kindly state IC50 for each of the entries shown.
Return type: number; implicit unit µM.

Prompt line: What reported IC50 corresponds to C=C(C)[C@@H]1CC[C@]2(C=O)CC[C@]3(C)[C@@H](CC[C@@H]4[C@@]5(C)CCC(=O)C(C)(C)[C@@H]5CC[C@]43C)[C@H]12 on Protease (Human immunodeficiency virus 1)?
Response line: 31.9

Prompt line: Same question, C=C(C)[C@@H]1CC[C@]2(C(=O)O)CC[C@]3(C)[C@@H](CC[C@@H]4[C@@]5(C)C=C(O)C(=O)C(C)(C)[C@@H]5CC[C@]43C)[C@H]12 this time
Response line: 18.8

Prompt line: Same question, CC(C)[C@@H](NC(=O)[C@]12CCC(C)(C)C[C@@H]1C1=CC[C@@H]3[C@@](C)(CC(=O)O)[C@H](C(C)(C)C(=O)O)CC[C@@]3(C)[C@]1(C)CC2)C(=O)O this time
Response line: 88.1

---

Biological target: Protease (Human immunodeficiency virus 1, UniProt Q9YQ12)
Sequence (Q9YQ12 whole entry): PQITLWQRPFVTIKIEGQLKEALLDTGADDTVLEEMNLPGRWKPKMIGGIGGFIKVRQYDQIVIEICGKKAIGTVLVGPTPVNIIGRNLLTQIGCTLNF
Recorded Endpoint: IC50 (µM)
Return type: number; implicit unit µM.

Prompt line: Give the measured IC50 of C=C(C)[C@@H]1CC[C@]2(C)CC[C@]3(C)[C@@H](CC[C@@H]4[C@@](C)(CC(=O)O)[C@H](C(C)(C)C(=O)O)CC[C@]43C)[C@H]12 .
Response line: 25.4

Prompt line: Same question, CC1(C)C(=O)CC[C@]2(C)[C@H]3C(=O)C=C4[C@H]5C[C@@](C)(C(=O)O)CC[C@]5(C)CC[C@@]4(C)[C@]3(C)CC[C@@H]12 this time
Response line: 23.6

Prompt line: Same question, CC(C)(C(=O)O)[C@@H]1CC[C@]2(C)[C@H](C(=O)C=C3[C@H]4C[C@@](C)(C(=O)O)CC[C@]4(C)CC[C@]32C)[C@@]1(C)CC(=O)O this time
Response line: 5.7

Prompt line: Same question, CC(C)[C@@H](NC(=O)[C@]12CCC(C)(C)C[C@@H]1[C@H]1CC[C@@H]3[C@@]4(C)C=C(O)C(=O)C(C)(C)[C@@H]4CC[C@@]3(C)[C@]1(C)CC2)C(=O)O this time
Response line: 49.7

Prompt line: Same question, COC(=O)[C@@H](NC(=O)[C@]12CCC(C)(C)C[C@@H]1C1=CC[C@@H]3[C@@]4(C)CCC(=O)C(C)(C)[C@@H]4CC[C@@]3(C)[C@]1(C)CC2)C(C)C this time
Response line: 37

Prompt line: Same question, C=C(C)[C@@H]1CC[C@]2(C)CC[C@]3(C)[C@@H](CC[C@@H]4[C@@]5(C)C=C(O)C(=O)C(C)(C)[C@@H]5CC[C@]43C)[C@H]12 this time
Response line: 24.6

Prompt line: Same question, CC1(C)CC[C@]2(C(=O)O)CC[C@]3(C)C(=CC[C@@H]4[C@@]5(C)CCC(=O)C(C)(C)[C@@H]5CC[C@]43C)[C@H]2C1 this time
Response line: 27.4

Prompt line: Same question, CC1(C)CC[C@]2(C(=O)O)CC[C@]3(C)C(=CC[C@@H]4[C@@]5(C)CC(=O)C(C)(C)[C@@H]5CC[C@]43C)[C@H]2C1 this time
Response line: 28.6

Prompt line: Same question, C[C@H]1[C@H](C)CC[C@]2(C(=O)O)CC[C@]3(C)C(=CC[C@@H]4[C@@]5(C)CCC(=O)C(C)(C)[C@@H]5CC[C@]43C)[C@H]12 [URSONIC ACID] this time
Response line: 37.5

Prompt line: Same question, C=C(C)[C@@H]1CC[C@@]2(C)[C@@H]1[C@@H]1CC[C@@H]3[C@@](C)(CC(=O)O)[C@H](C(C)(C)C(=O)O)CC[C@@]3(C)[C@]1(C)C[C@@H]2O this time
Response line: 10.9
